Entries annotated with measured Fluorescence Emission Peak
Assay: Fluorescence assay protocol (absorption, excitation and emission scans in MeOH)
Assay type: physicochemical
Report only the number, with the unit nm understood.

Challenge: Would you mind telling me what Fluorescence Emission Peak value was observed for `CCCCCCCN(C)c1cc(O)c2c(c1)oc(=O)c1ccc(OC)cc12` ?
Response given: 498

Next:
Challenge: Would you mind telling me what Fluorescence Emission Peak value was observed for CCCCCCN(C)c1cc(O)c2c3c(c(=O)oc2c1)CCC(C)C3 (stereo not drawn) ?
Response given: 460

Challenge: Another compound to look at: CCCCCCCN(C)c1cc(O)c2c3c(c(=O)oc2c1)CCC(C)C3 (stereo not drawn)
Response given: 460
